Test system: SK-OV-3 ovarian
Experiment: NCI tumour cell line growth inhibition, 48 h
readout kind: TGI

Lookup: Look up TGI for this compound: Nc1nc2c(ncn2C2C=CC(CO)C2)c(=O)[nH]1 (stereo unspecified)
Found: > 100 µM

Lookup: Request: `O=c1c2cc3c(=O)n4c(cc(-c5ccccc5)c5cc(Cl)ccc54)nc3cc2nc2cc(-c3ccccc3)c3cc(Cl)ccc3n12`
Found: > 100 µM

Lookup: Request: `O=[P+](O)c1ccsc1`
Found: > 100 µM

Lookup: Request: `Cc1cc(N2CCOCC2)nc(N[C@@H]2CCC[C@H](Nc3ccnc4cc(Cl)ccc34)C2)n1`
Found: 11.9 µM

Lookup: Request: `O=C(O)CCSCc1ccccc1`
Found: > 100 µM

Lookup: Request: COC(=O)C(Cc1c[nH]c2ccccc12)NC(=O)c1ccc(-c2ccc(Cl)cc2Cl)o1 (stereo unspecified)
Found: > 100 µM

Lookup: Request: CCN(CC)c1ccc(C(O)C2=CC(=O)c3ccccc3C2=O)cc1 (stereo unspecified)
Found: 6.82 µM

Lookup: Request: `Cn1c2c(c3ccc([N+](=O)[O-])cc3c1=O)C(=O)c1ccccc1-2`
Found: > 100 µM

Lookup: Request: COC(=O)C(C(=O)OC)C1CCCC(=O)C1 (stereo unspecified)
Found: > 100 µM

Lookup: Request: N#CC(Cc1ccccc1)N(CCC1=CCCCC1)Cc1ccccc1 (stereo unspecified)
Found: > 100 µM

Lookup: Request: `Clc1ccc(-c2c3c(nn2-c2ccccn2)CCc2ccccc2-3)cc1Cl`
Found: > 100 µM

----------
Field: TGI. Provide a value for each of the compounds that follow.
System: MDA-MB-231 breast
Assay: NCI tumour cell line growth inhibition, 48 h

Lookup: Look up TGI for this compound: `CCOC(=O)C1=NN(c2ccc([N+](=O)[O-])cc2)[C@@]2(C)C[C@]3(c4ccccc4)N(c4ccc([N+](=O)[O-])cc4)N=C(C(=O)OCC)N3c3ccccc3N12`
Found: 84.4 µM

Lookup: Request: C=C1CCC2C3(C)COC(c4ccccc4)OC3CCC2(C)C1/C=C/C1=CCOC1=O (configuration not stated)
Found: 43 µM

Lookup: Request: `Cc1ccc(/C(O)=C/C(=O)C(=O)NC23CC4CC(CC(C4)C2)C3)cc1`
Found: > 10 µM

Lookup: Request: `COc1cc(C(=O)N2CCN(c3ncnc4ccccc34)CC2)c(N)cc1OCc1ccccc1`
Found: 35.3 µM

Lookup: Request: `NCCOCCOCCNc1nc(-c2ccccc2)nc(N2CCN(c3ccccn3)CC2)n1`
Found: 28.8 µM

Lookup: Request: CC1=C(c2ccccc2)NC(=S)C(C)C(c2ccccc2)=N1 (configuration not stated)
Found: > 100 µM

Lookup: Request: `C=C(CCC/C(C)=C/C=C/[C@@H](C)CCCc1ccoc1)C[C@@H]1OC(=O)[C@H](C)[C@@H]1O`
Found: 16.9 µM

----------
Field: TGI. Provide a value for each of the compounds that follow.
System: SK-OV-3 ovarian
Test: NCI tumour cell line growth inhibition, 48 h

Lookup: Look up TGI for this compound: `CS(=O)(=O)c1ccc(N=C/C=C/Nc2ccc(S(C)(=O)=O)cc2)cc1`
Found: > 100 µM

Lookup: Request: O=C(c1ccccc1)C1OC12C(=O)Nc1c(Cl)cc(Cl)cc12 (stereo unspecified)
Found: > 100 µM

Lookup: Request: NC(=O)Cc1nc2c(N)ncnc2n1C1OC(CO)C(O)C1O (stereo unspecified)
Found: > 100 µM

Lookup: Request: O=C(CCN1CCN(c2ccccc2)CC1)N1CCc2c([nH]c3ccccc23)C1c1cccnc1 (stereo unspecified)
Found: 33.7 µM

Lookup: Request: CC1=C(O)C(=O)C2C(=O)C1C1Cc3ccccc3C21 (stereo unspecified)
Found: > 100 µM

Lookup: Request: CC(=O)OC[C@@H](COC(=O)/C=C/c1ccc(O)cc1)OC1OC(CO)C(O)C(O)C1O (stereo partly specified)
Found: > 100 µM
